tested on: Escherichia coli (ATCC 25922); test: MIC, broth microdilution; conditions: Escherichia coli, ATCC25922, read-out: Compound MIC on Bacterial Strains: Escherichia coli ECM6000 ATCC 25922
recorded endpoint: MIC

Query string: State the recorded MIC for this entry: CN[C@@H]1[C@@H](O)[C@@H](O[C@@H]2[C@@H](O)[C@H](O[C@H]3O[C@H](CNCCO)CC[C@H]3N)[C@@H](N)C[C@H]2NC(=O)[C@@H](O)CN)OC[C@]1(C)O [Compound 2]
Result string: < 1 µg/mL

Query string: Also NCC[C@H](O)C(=O)N[C@@H]1C[C@H](N)[C@@H](O[C@H]2O[C@H](CN)[C@@H](O)[C@H](O)[C@H]2O)[C@H](O)[C@H]1O[C@H]1O[C@H](CO)[C@@H](O)[C@H](N)[C@H]1O [Amikacin, reference compound] , if possible.
Result string: 1 to 8 µg/mL

* * *

tested on: Escherichia coli (ATCC 25922); assay: MIC, broth microdilution; conditions: Escherichia coli, ATCC25922, read-out: Compound MIC on Bacterial Strains: ECM6000 ATCC 25922
recorded endpoint: MIC

Query string: Item CN[C@@H]1[C@@H](O)[C@@H](O[C@@H]2[C@@H](O)[C@H](O[C@H]3O[C@H](CNCCO)CC[C@H]3N)[C@@H](N)C[C@H]2NC(=O)[C@@H](O)CNN)OC[C@]1(C)O has what recorded MIC?
Result string: 1 to 8 µg/mL

Query string: Try this compound next: CN[C@@H]1[C@@H](O)[C@@H](O[C@@H]2[C@@H](O)[C@H](O[C@H]3O[C@H](CN)CC[C@H]3N)[C@@H](N)C[C@H]2NC(=O)[C@@H](O)[C@H](N)CO)OC[C@]1(C)O
Result string: 1 to 8 µg/mL

Query string: Now the same for CN[C@@H]1[C@@H](O)[C@@H](O[C@@H]2[C@@H](O)[C@H](O[C@H]3O[C@H](CNCCO)CC[C@H]3N)[C@@H](N)C[C@H]2NC(=O)[C@@H](O)CN)OC[C@]1(C)O
Result string: < 1 µg/mL

Query string: Same question for NC[C@H]1O[C@H](O[C@H]2[C@H](O)[C@@H](O[C@H]3O[C@H](CO)[C@@H](O)[C@H](N)[C@H]3O)[C@H](N)C[C@@H]2N)[C@H](N)C[C@@H]1O [Tobramycin, reference compound] please.
Result string: < 1 µg/mL

Query string: // same read-out, input: CN[C@@H]1[C@@H](O)[C@@H](O[C@@H]2[C@@H](O)[C@H](O[C@H]3O[C@H](CNCCF)CC[C@H]3N)[C@@H](N)C[C@H]2NC(=O)[C@@H](O)CN)OC[C@]1(C)O
Result string: < 1 µg/mL

* * *

system: ECM6009 aac(3)-II; assay: microbe, parasite or virus in culture; type: cell-based, Escherichia coli; conditions: Escherichia coli, read-out: Compound MIC on Bacterial Strains: ECM6009 aac(3)-II
recorded endpoint: MIC

Query string: Any idea what its MIC is? The molecule is CN[C@@H]1[C@@H](O)[C@@H](O[C@@H]2[C@@H](O)[C@H](O[C@H]3O[C@H](CNCCO)CC[C@H]3N)[C@@H](N)C[C@H]2NC(=O)[C@@H](O)CCN)OC[C@]1(C)O
Result string: < 1 µg/mL

Query string: Another molecule: CN[C@@H]1[C@@H](O)[C@@H](O[C@@H]2[C@@H](O)[C@H](O[C@H]3O[C@H](CNCCF)CC[C@H]3N)[C@@H](N)C[C@H]2NC(=O)[C@@H](O)CN)OC[C@]1(C)O
Result string: < 1 µg/mL

Query string: What would you report for CN[C@@H]1C(O)[C@@H](OC2C(O)C(O[C@H]3O[C@H](CN)CCC3N)[C@@H](N)C[C@H]2NC(=O)[C@@H](O)[C@@H](O)CN)OCC1(C)O (stereo partly drawn) ?
Result string: < 1 µg/mL

* * *

Please go through the items and note down their MIC.
system: EC1002 aph(3′)-IV; assay: organism not typed; format: cell-based; conditions: read-out: Compound MIC on Bacterial Strains: EC1002 aph(3′)-IV

Query string: Lookup: MIC / EC1002 aph(3′)-IV / NCC[C@H](O)C(=O)N[C@@H]1C[C@H](N)[C@@H](O[C@H]2O[C@H](CN)[C@@H](O)[C@H](O)[C@H]2O)[C@H](O)[C@H]1O[C@H]1O[C@H](CO)[C@@H](O)[C@H](N)[C@H]1O [Amikacin, reference compound]
Result string: > 8 µg/mL

Query string: Try CN[C@@H]1[C@@H](O)[C@@H](O[C@@H]2[C@@H](O)[C@H](O[C@H]3O[C@H](CNCCO)CC[C@H]3N)[C@@H](N)C[C@H]2NC(=O)[C@@H](O)CN)OC[C@]1(C)O next.
Result string: 1 to 8 µg/mL

Query string: Same for CN[C@@H]1[C@@H](O)[C@@H](O[C@@H]2[C@@H](O)[C@H](O[C@H]3O[C@H](CN)CC[C@H]3N)[C@@H](N)C[C@H]2NC(=O)[C@@H](O)[C@H](N)CO)OC[C@]1(C)O
Result string: 1 to 8 µg/mL

Query string: Record: CN[C@@H]1C(O)[C@@H](OC2C(O)C(O[C@H]3O[C@H](CN)CCC3N)[C@@H](N)C[C@H]2NC(=N)CO)OCC1(C)O (stereo partly shown)
Result string: 1 to 8 µg/mL

Query string: Do the same for CN[C@@H]1[C@@H](O)[C@@H](O[C@@H]2[C@@H](O)[C@H](O[C@H]3O[C@H](CNCCO)CC[C@H]3N)[C@@H](N)C[C@H]2NC(=O)C2(O)CNC2)OC[C@]1(C)O please
Result string: 1 to 8 µg/mL

Query string: Now this one: CNC[C@@H]1CCC(N)[C@@H](OC2C(O)C(O[C@H]3OCC(C)(O)[C@H](NC)C3O)[C@H](NC(=O)[C@@H](O)C(O)CN)C[C@@H]2N)O1 (stereo in doubt)
Result string: 1 to 8 µg/mL

Query string: Request: CN[C@@H]1[C@@H](O)[C@@H](O[C@@H]2[C@@H](O)[C@H](O[C@H]3O[C@H](CNC[C@H](O)CO)CC[C@H]3N)[C@@H](N)C[C@H]2NC(=O)[C@@H](O)CN)OC[C@]1(C)O
Result string: 1 to 8 µg/mL

* * *

system: ECM6009 aac(3)-II; test: microbe, parasite or virus in culture; format: cell-based, Escherichia coli; conditions: Escherichia coli, read-out: Compound MIC on Bacterial Strains: ECM6009 aac(3)-II
recorded endpoint: MIC

Query string: Need MIC of CN[C@@H]1[C@@H](O)[C@@H](O[C@@H]2[C@@H](O)[C@H](O[C@H]3O[C@H](CN)CC[C@H]3N)[C@@H](N)C[C@H]2NC(=O)[C@@H](O)[C@H](N)CO)OC[C@]1(C)O , thanks.
Result string: < 1 µg/mL

Query string: Next compound: CCN[C@@H]1C[C@H](N)[C@@H](O[C@H]2OC(CN)=CC[C@H]2N)[C@H](O)[C@H]1O[C@H]1OC[C@](C)(O)[C@H](NC)[C@H]1O [Netilmicin, reference compound]
Result string: > 8 µg/mL

Query string: Another: CN[C@@H]1[C@@H](O)[C@@H](O[C@@H]2[C@@H](O)[C@H](O[C@H]3O[C@H](CNCCO)CC[C@H]3N)[C@@H](N)C[C@H]2NC(=O)[C@@H](O)CNN)OC[C@]1(C)O
Result string: > 8 µg/mL

* * *

system: Escherichia coli (ATCC 25922); test: MIC, broth microdilution; settings: Escherichia coli, ATCC25922, read-out: Compound MIC on Bacterial Strains: ECM6000 ATCC 25922
Give MIC for every item shown.

Query string: Entry CN[C@@H]1[C@@H](O)[C@@H](O[C@@H]2[C@@H](O)[C@H](O[C@H]3O[C@H](CNC[C@H](O)CO)CC[C@H]3N)[C@@H](N)C[C@H]2NC(=O)[C@@H](O)CN)OC[C@]1(C)O has what MIC?
Result string: < 1 µg/mL

Query string: Now try CN[C@@H]1C(O)[C@@H](OC2C(O)C(O[C@H]3O[C@H](CNCCO)CCC3N)[C@@H](N)C[C@H]2NC(=O)[C@@H](O)[C@@H](O)CN)OCC1(C)O (stereo partly drawn) .
Result string: 1 to 8 µg/mL

Query string: What do you have for CN[C@@H]1[C@@H](O)[C@@H](O[C@@H]2[C@@H](O)[C@H](O[C@H]3O[C@H](CNCCO)CC[C@H]3N)[C@@H](N)C[C@H]2NC(=O)C2(O)CNC2)OC[C@]1(C)O ?
Result string: < 1 µg/mL

Query string: CN[C@@H]1C(O)[C@@H](OC2C(O)C(O[C@H]3O[C@H](CN)CCC3N)[C@@H](N)C[C@H]2NC(=N)CO)OCC1(C)O (stereo partly drawn) , same question.
Result string: 1 to 8 µg/mL

Query string: Another molecule to look at: CN[C@@H]1[C@@H](O)[C@@H](O[C@@H]2[C@@H](O)[C@H](O[C@H]3O[C@H](CNCC(O)CO)CC[C@H]3N)[C@@H](N)C[C@H]2NC(=O)[C@@H](O)CCN)OC[C@]1(C)O (stereo partly drawn)
Result string: < 1 µg/mL

Query string: Could you do the same for CN[C@@H]1C(O)[C@@H](OC2C(O)C(O[C@H]3O[C@H](CN)CCC3N)[C@@H](N)C[C@H]2NC(=O)[C@@H](O)[C@@H](O)CN)OCC1(C)O (stereo partly drawn) , please?
Result string: 1 to 8 µg/mL

Query string: CNC[C@@H]1CCC(N)[C@@H](OC2C(O)C(O[C@H]3OCC(C)(O)[C@H](NC)C3O)[C@H](NC(=O)[C@@H](O)C(O)CN)C[C@@H]2N)O1 (stereo in doubt) , same question.
Result string: 1 to 8 µg/mL

Query string: Same for CN[C@@H]1[C@@H](O)[C@@H](O[C@@H]2[C@@H](O)[C@H](O[C@H]3O[C@H](CNCCO)CC[C@H]3N)[C@@H](N)C[C@H]2NC(=O)[C@@H](O)CCN)OC[C@]1(C)O
Result string: < 1 µg/mL

Query string: Input CCN[C@@H]1C[C@H](N)[C@@H](O[C@H]2OC(CN)=CC[C@H]2N)[C@H](O)[C@H]1O[C@H]1OC[C@](C)(O)[C@H](NC)[C@H]1O [Netilmicin, reference compound]
Result string: < 1 µg/mL
